Where do the numbers come from? From PubChem BioAssay (NCI).

# Tested on: SK-OV-3 ovarian
# method: NCI tumour cell line growth inhibition, 48 h
Entries and their measured TGI follow.
Give the value, in units of µM, as a plain number.

1. CC(C)(C)CC(C)(C)c1ccc(OCCOCCSC(=N)N)cc1 ... 7.39
2. CC1=C(C(=O)OC(C)C)C(c2ccccc2[N+](=O)[O-])C(C(=O)OC(CO[N+](=O)[O-])CO[N+](=O)[O-])=C(C)N1 (centres undefined) ... 12.6
3. C[C@H]1[C@@H](OCC(CO[C@H]2O[C@@H]3O[C@@]4(C)CC[C@H]5[C@H](C)CC[C@@H]([C@H]2C)[C@@]35OO4)=NOCC(=O)O)OC2O[C@@]3(C)CC[C@H]4[C@H](C)CC[C@@H]1[C@@]24OO3 (some centres undefined) ... 19.6
4. O=C1/C(=C/c2cccs2)CCC/C1=C\c1cccs1 ... 74.2
5. CSC(=NCCN=C(NS(=O)(=O)c1ccc(Cl)cc1)SC)NS(=O)(=O)c1ccc(Cl)cc1 ... 59.1
6. CCCCCCCCCC(=O)CC(=O)c1c(O)cccc1O ... 64.1
7. O=[N+]([O-])c1ccccc1C1N2CCCCC2[C@@H]2c3[nH]c4ccccc4c3CCN12 (some centres undefined) ... 54.3
8. O=Nc1c(O)ccc2ccccc12 ... 28.9

Consider now this further compound.
Query block: # TGI lookup, item COc1cc2c(cc1OC)C(Cl)C(c1cc(OC)c(OC)c(OC)c1)=C2Cl (centres undefined)
Result block: 56.2

###

# System: MDA-MB-231 breast
# method: NCI tumour cell line growth inhibition, 48 h
measurement.type: GI50

Consider the following illustrative entries.
1) CC(=O)/C(C)=N/N/C(N)=N\S(=O)(=O)c1cc(C(=O)Nc2ccccc2)c(Cl)cc1SCc1ccccc1 ... 5940 nM
2) COc1ccc(/C=C(\C#N)c2cc3ccccc3n2C)cc1 ... 699 nM
3) COc1ccc(-c2ccc(-c3ccc(C(=N)N)cn3)s2)cc1Cl ... 1620 nM

Query block: # GI50 lookup, item "Cn1ccnc1C(=O)/C=C/c1ccc(C(=O)Nc2nc3ccccc3[nH]2)cc1"
Result block: 3050 nM

Query block: # GI50 lookup, item CC[C@H](C)[C@H](NC(=O)C12C3C4C1C1C2C3C41NC(C)=O)C(=O)N(C)[C@H](C[C@@H](OC(C)=O)c1nc(C(=O)N[C@@H](Cc2ccccc2)C[C@H](C)C(=O)OC)cs1)C(C)C (stereo not given in full)
Result block: 435 nM

###

# System: SNB-19 CNS
# method: NCI tumour cell line growth inhibition, 48 h
measurement.type: TGI

Consider the following illustrative entries.
1) COc1ccc(C(=O)C=C2NCCN2)cc1 ... > 100 µM
2) O=C1c2cc(CCl)sc2C(=O)c2ccsc21 ... 0.527 µM

Query block: # TGI lookup, item COc1ccc(NC(=O)C(=O)C2NC(=S)NC2=O)c(OC)c1 (stereo unspecified)
Result block: > 100 µM

Query block: # TGI lookup, item "CCc1cccc(C)c1NC(=O)NS(=O)(=O)c1ccc(C)cc1"
Result block: > 100 µM

Query block: # TGI lookup, item O=C(C1OC1c1ccc([N+](=O)[O-])cc1)C12CC3CC(CC(C3)C1)C2 (stereo unspecified)
Result block: 32 µM

Query block: # TGI lookup, item "COc1ccc(NC(=O)c2cc(OC)c(OC)c(OC)c2)cc1O"
Result block: > 100 µM

###

# Test system: A549 NSCLC
# method: NCI tumour cell line growth inhibition, 48 h
measurement.type: TGI

Query block: # TGI lookup, item CC(C)[Si](OC1=CCCCCC12C(=O)N(C)c1ccccc12)(C(C)C)C(C)C (stereo not given)
Result block: 48.8 µM

Query block: # TGI lookup, item COc1ccc(C(Nc2ncccn2)c2cc3c(cc2O)OCO3)cc1 (stereo not given)
Result block: > 100 µM

Query block: # TGI lookup, item "CC1(C)CCc2c(c(N=Nc3ccccc3)c3ccccc3c2O)O1"
Result block: > 100 µM

Query block: # TGI lookup, item "O=C1C(c2ccccc2)=C(c2ccccc2)C(c2ccc(CCCCCCc3ccc(C4=C(c5ccccc5)C(=O)C(c5ccccc5)=C4c4ccccc4)cc3)cc2)=C1c1ccccc1"
Result block: > 100 µM

Query block: # TGI lookup, item "FC(F)(F)c1ccc(-c2cnc(Br)nc2NC2CCCCCC2)cc1"
Result block: > 100 µM

###

# System: CAKI-1 renal
# method: NCI tumour cell line growth inhibition, 48 h
Entries and their measured TGI follow.

Consider the following illustrative entries.
1. COc1ccc2c(c1)CC[C@@H]1C2CC[C@]2(C)C(=O)NC(=O)CC12 (stereo partly specified) ... > 100 µM
2. COC1=C(OC)CCC(/C(C#N)=C/c2ccc(OC)c(OC)c2)=C1 ... > 100 µM
3. CCC1(C)N=C(C(N)=O)c2ncn(N=C(C)C)c2N1 (stereo unspecified) ... > 100 µM
4. O=C(/C=C/c1cccc(Cl)c1)c1ccc(Cl)cc1Cl ... 18.2 µM

Query block: # TGI lookup, item NC(CCCCNc1ccn(C2OC(CO)C(O)C2O)c(=O)n1)C(=O)O (stereo unspecified)
Result block: > 100 µM

Query block: # TGI lookup, item "Cc1nc(C(N)=S)sc1C(=O)/C=C/c1cccc(O)c1"
Result block: > 100 µM

Query block: # TGI lookup, item "C[N+]1(C)CN(c2ccccc2)C2(CCN(CCCC(=O)c3cccs3)CC2)C1=O"
Result block: > 100 µM

Query block: # TGI lookup, item "O=c1c([Se]c2coc3ccccc3c2=O)coc2ccccc12"
Result block: 39.8 µM

Query block: # TGI lookup, item "S=C(Nc1ccc(Br)cn1)NC12CC3CC(CC(C3)C1)C2"
Result block: > 100 µM

Query block: # TGI lookup, item CC12ON=C(c3ccccc3)N1C=CN1C(c3ccccc3)=NOC12 (stereo unspecified)
Result block: > 100 µM

Query block: # TGI lookup, item "CCc1cccc(C)c1NC(=O)NS(=O)(=O)c1ccc(C)cc1"
Result block: > 100 µM

###

# Tested on: NCI-H522 lung
# method: NCI tumour cell line growth inhibition, 48 h; in the data active = GI50 below about 0.43 µM; inactive = the rest
// one of active, inactive, no free text

1) CC(C)(C)CC(C)(C)c1ccc(OCCOCCSC(=N)N)cc1 ... inactive
2) c1ccc(-c2nc(N3CCNCC3)c3nc(-c4ccccc4)oc3n2)cc1 ... inactive
3) C[C@@H]1CC[C@@]2(OC1)O[C@H]1C[C@H]3[C@@H]4CC=C5C[C@@H](O[C@@H]6O[C@H](CO)[C@@H](O[C@@H]7O[C@@H](CO)[C@H](O)[C@H]7O)[C@H](O)[C@H]6O[C@@H]6O[C@@H](C)[C@H](O)[C@@H](O)[C@H]6O)CC[C@]5(C)[C@H]4CC[C@]3(C)[C@H]1[C@@H]2C ... inactive
4) O=C(/C=C/c1ccco1)Nc1ncc(Cc2ccc(F)cc2)s1 ... active
5) O=[N+]([O-])c1ccc2c(N=Nc3c(O)ccc4ccccc34)c(O)cc(S(=O)(=O)O)c2c1 ... inactive
6) COc1ccc(C(O)c2cc3c(N)c(C(=O)Nc4cccc(Br)c4)sc3nc2C)cc1 (stereo not drawn) ... active
7) CC/C=C\CCC/C=C1/C(=O)C=C[C@@H]1C/C=C\CCCC(=O)O ... inactive
8) CN(C)c1ccc(/C=C/c2ccnc3ccccc23)cc1 ... inactive

Query block: Entry "O=C1/C(=C/c2cccs2)CCC/C1=C\c1cccs1" : call = ?
Result block: inactive

Query block: Entry "COc1ccc([C@H]2O[C@@H](CO)C[C@]2(O)c2ccc(OC)cc2)cc1" : call = ?
Result block: inactive

Query block: Entry "COc1ccc(-c2ccc(-c3ccc(C(=N)N)cn3)s2)cc1Cl" : call = ?
Result block: inactive

Query block: Entry "O=c1[nH]c(-c2ccc(C(F)(F)F)cc2)nc2c1CSCC2" : call = ?
Result block: inactive

Query block: Entry "COc1ccc(/C=C\c2cc(OC)c(OC)c(OC)c2)c(NS(=O)(=O)c2ccc(C)cc2)c1O" : call = ?
Result block: active

###

Entries and their measured TGI follow.
# Test system: UO-31 renal
# method: NCI tumour cell line growth inhibition, 48 h
Give the value, in units of µM, as a plain number.

Consider the following illustrative entries.
1) COC(=O)C1=C(C)NC(C)=C([N+](=O)[O-])C1c1cccc(NO)c1 (stereo unspecified) ... 24.1
2) CC1=C2C(c3ccccc3)(c3ccccc3)C3C=CC2(C=N3)N(C(=O)NC2CCCCC2)C1=O (stereo unspecified) ... 27.3

Query block: # TGI lookup, item C[Se]C(=O)CC1=C2C=C(F)C=CC2/C(=C\c2ccc(S(C)=O)cc2)C1C (stereo unspecified)
Result block: 0.179

###

# Tested on: SF-295 CNS
# method: NCI tumour cell line growth inhibition, 48 h; in the data active = GI50 below about 0.43 µM; inactive = the rest
// one of Yes (active), No (inactive), no free text

Known results for compounds:
1. COc1ccc(C(O)c2cc3c(N)c(C(=O)Nc4cccc(Br)c4)sc3nc2C)cc1 (stereo not given) ... Yes
2. O=C(/C=C/c1ccco1)Nc1ncc(Cc2ccc(F)cc2)s1 ... Yes
3. Cn1ccnc1C(=O)/C=C/c1ccc(C(=O)Nc2nc3ccccc3[nH]2)cc1 ... No

Query block: Entry "C#Cc1ccc(NC(=O)c2ccc(/C=C/C(=O)c3nccn3C)cc2)cc1" : call = ?
Result block: No

Query block: Entry "Oc1c(CN2CCCC2)cc(COCc2ccccc2)c2cccnc12" : call = ?
Result block: No
